Where these numbers come from: the supplement of paper PMC11417369

Kindly state gcPBM binding intensity (ln) for each of the entries shown.
test system: PfAP2-I AP2 domain 3 (GST-tagged); assay: gcPBM binding intensity (ln(normalized median fluorescence intensity)); higher = stronger DNA binding
Whole data set: some 25,000 sequences, median “ln(normalized median fluorescence intensity)” near 7.9, cut for the highest 2% near 11. For the sample, the highest values were picked, then their nearest neighbours and some sequences at random.
Answers are plain numbers.

# count of solved cases: 5
entry-sequence	quantity	numeric-value
GTATATCATTTTGGGGTGCTTAAAAATAATGAATAC	gcPBM binding intensity (ln)	10.4
ATAATATTTTATATAGTGCATTTGCTCATTATATAT [GTGCAC_site9528]	gcPBM binding intensity (ln)	9.85
TATGAACTTTTGGGGGTGCCTTAAAATGTATATTCT	gcPBM binding intensity (ln)	11.2
TAAAAAATGATAGAAGTGCATAAAATAATATATATA [GTGCAC_site9904]	gcPBM binding intensity (ln)	10.4
TTGTGTGAGCAAGTAGTGCATAATATAAATAAAAAA [GTGCAC_site9802]	gcPBM binding intensity (ln)	11.2

Hey, quick one: what's gcPBM binding intensity (ln) for each of these?
1. AAAATAATATAAATAATATAAGTGAGCATATATATA [TGCATGCA_negctrl_site527]
2. TTATTATTATATGAATGTACTTAAAAATACATTTTG [XGTACX_site2959]
3. TTTAGATATATGGTAGTGCATAATAAAAATATAGCC [GTGCAC_site9449]
4. TTCTTTATATACAAACCAAAATATTATGTATAATAA [CACACA_negctrl_site15]

Result:
[7.92, 7.43, 11.1, 7.62]

Problem: Value lookup for gcPBM binding intensity (ln); key = ACATTTACAAGGAAAGTGCATATAAGAAAAATAAAA [GTGCAC_site9587]
Result: 10.2

====

tested on: PfAP2-I AP2 domain 3 (GST-tagged); experiment: gcPBM binding intensity (ln(normalized median fluorescence intensity)); higher = stronger DNA binding
Over roughly 25,000 sequences, “ln(normalized median fluorescence intensity)” has its median near 7.9; the highest 2% begin near 11. For the sample, the highest values were picked, then their nearest neighbours and some sequences at random.
quantity: gcPBM binding intensity (ln)
Answers are plain numbers.

# count of solved cases: 4
entry-sequence	tested-target	gcPBM binding intensity (ln)
AAAAAAAAAATTTAGGTGCATACAAATAAATTATAT [GTGCAC_site9521]	PfAP2-I AP2 domain 3 (GST-tagged)	10.2
TAAATATAAAAATGCACACACACAAAAAAAAAAAAA [CACACA_site895]	PfAP2-I AP2 domain 3 (GST-tagged)	8.88
TATAAATATACAAAGGTGCATAAAAAGTTATGTTTT [GTGCAC_site9832]	PfAP2-I AP2 domain 3 (GST-tagged)	11.2
TTAAAAAAATATTGAAGTACACACATTATAAACTTT [XGTACX_site3548]	PfAP2-I AP2 domain 3 (GST-tagged)	7.89

Hey, quick one: what's gcPBM binding intensity (ln) for each of these?
1. TTTGATAAATTATACACACACAATATATATAAAATA [CACACA_site2023]
2. CTATTATCGGTTCCTACACACAAATATATATGTCTA [CACACA_site3579]

Result:
1. 7.72
2. 8.1
